Where these numbers come from: PubChem BioAssay (NCI)

assay-comment: NCI Yeast Anticancer Drug Screen. Data for the bub3 strain (AID 167)
particulars: S. cerevisiae bub3 mutant strain, at 50.0 µM, hits give high values
This is part of a sample that, as a whole, favours compounds with a hit. Of some 79,000 tested, about 15% had one in any assay.
The reader will find reported growth inhibition values listed item by item below.
assay-endpoint: growth inhibition (%)

>  <compound>
COC1OC(CBr)C(OC(C)=O)C(OC(C)=O)C1OC(C)=O (stereo not drawn)

>  <assay-endpoint>
growth inhibition

>  <result-value>
82.3

$$$$
>  <compound>
O=C(c1ccc(OCC(O)CN2CCN(c3ccccc3)CC2)cc1)c1cc2ccccc2c2ccccc12 (stereo not drawn)

>  <assay-endpoint>
growth inhibition

>  <result-value>
89.3

$$$$
>  <compound>
Cc1cccc(N2C(=O)c3ccccc3C2(c2ccccc2)N2CCCCC2)c1 (stereo not drawn)

>  <assay-endpoint>
growth inhibition

>  <result-value>
50.3

$$$$
>  <compound>
Cc1cc(NCCO)nc2c1ccc1ccccc12

>  <assay-endpoint>
growth inhibition

>  <result-value>
19

$$$$
>  <compound>
CC(C)=CCc1c(O)cc(O)c2c1OC(c1ccc(O)cc1)C(O)C2=O (stereo not drawn)

>  <assay-endpoint>
growth inhibition

>  <result-value>
92

$$$$
>  <compound>
C/C(=N\NC(=S)NC12CC3CC(CC(C3)C1)C2)c1ccccn1

>  <assay-endpoint>
growth inhibition

>  <result-value>
97.1

$$$$
>  <compound>
CC1(C)CC(=O)C2=C(C1)OC1=C(C(=O)CC(C)(C)C1)C2CC(c1ccccc1)c1ccc(O)c(O)c1O (stereo not drawn)

>  <assay-endpoint>
growth inhibition

>  <result-value>
36

$$$$
>  <compound>
CCOP(=O)(CCC(=O)[C@@]1(O)CC[C@H]2[C@@H]3CCC4=CC(=O)CC[C@]4(C)[C@H]3CC[C@@]21C)OCC

>  <assay-endpoint>
growth inhibition

>  <result-value>
29.8

$$$$
>  <compound>
O=C1Nc2ccccc2SC1c1ccccc1 (stereo not drawn)

>  <assay-endpoint>
growth inhibition

>  <result-value>
99.3

$$$$
>  <compound>
O=C1OC(c2ccccc2)=N/C1=C\c1ccc(Oc2ccc(Cl)c(Cl)c2)cc1

>  <assay-endpoint>
growth inhibition

>  <result-value>
69.7

$$$$
>  <compound>
CCCOC(=O)C(S)C(S)C(=O)OCCC (stereo not drawn)

>  <assay-endpoint>
growth inhibition

>  <result-value>
26.8

$$$$
>  <compound>
O=C(NNc1ccccc1)C(O)C(O)C(O)C(O)C(O)C(O)C(O)CO (stereo not drawn)

>  <assay-endpoint>
growth inhibition

>  <result-value>
88.3

$$$$
>  <compound>
O=C1c2ccccc2C(=O)c2cc(S(=O)(=O)Cl)ccc21

>  <assay-endpoint>
growth inhibition

>  <result-value>
72.5

$$$$
>  <compound>
CCCC(=O)c1cc(O)c(O)c(CN(C)Cc2cc(Cl)cc(C)c2O)c1O

>  <assay-endpoint>
growth inhibition

>  <result-value>
49

$$$$
>  <compound>
COC(=O)c1ccc(Cl)c(Cl)c1

>  <assay-endpoint>
growth inhibition

>  <result-value>
22

$$$$
>  <compound>
CC(C)=CCc1c2c(c3occ(-c4ccc(O)c(O)c4)c(=O)c3c1O)C=CC(C)(C)O2

>  <assay-endpoint>
growth inhibition

>  <result-value>
89

$$$$
>  <compound>
CCCCCCCCN1C(=O)c2ccccc2S1(=O)=O

>  <assay-endpoint>
growth inhibition

>  <result-value>
89.2

$$$$
>  <compound>
CCCC#CCCOC(=O)c1cc([N+](=O)[O-])cc([N+](=O)[O-])c1

>  <assay-endpoint>
growth inhibition

>  <result-value>
99.4

$$$$
>  <compound>
CCOc1ccc(C(=O)CCN2CCOCC2)cc1

>  <assay-endpoint>
growth inhibition

>  <result-value>
46

$$$$
>  <compound>
S=c1[nH]nc(SCc2ccc(Cl)c(Cl)c2)c2[nH]cnc12

>  <assay-endpoint>
growth inhibition

>  <result-value>
9.25

$$$$
>  <compound>
O=C(O)C(CCc1cccc2ccccc12)c1ccccc1 (stereo not drawn)

>  <assay-endpoint>
growth inhibition

>  <result-value>
99

$$$$
>  <compound>
CCN(CC)CCOC(=O)Nc1cc(Cl)cc(Cl)c1

>  <assay-endpoint>
growth inhibition

>  <result-value>
61.2

$$$$
>  <compound>
CC(=O)OC1CCCc2c1nc1ccccc1[n+]2[O-] (stereo not drawn)

>  <assay-endpoint>
growth inhibition

>  <result-value>
-10.5

$$$$
